# ASSAY_TARGET: Replicase polyprotein 1ab (Severe acute respiratory syndrome coronavirus)
# EXPERIMENT_SUMMARY: blockers of SARS 3CLpro peptide cleavage – biochemical, quenched FRET, primary screen (AID 1706)
# CONDITIONS_USED: recombinant SARS-CoV 3CLpro, at 6 µM, stronger effect = higher value
Hit rate of the full screen: of about 290,000 compounds, about 400 (0.14%) were called active. What follows is part of a selection rich in actives, with near analogues and random picks from the rest.
Parameter inhibition: see the listing below.

COMPOUND: COc1ccc(CCNC(=O)/C(C#N)=C2\N=C(NC(=O)c3cccs3)c3ccccc32)cc1
OUTPUT_UNIT: %
inhibition: 1.64

COMPOUND: CCc1ccc(-n2c(SCc3cc(=O)n4cc(Br)ccc4n3)nc3[nH]ncc3c2=O)cc1
OUTPUT_UNIT: %
inhibition: 0.2

COMPOUND: CC(C)c1ccc(N(C(=O)c2ccco2)C(C(=O)NC2CCCC2)c2cccnc2)cc1 (configuration not stated)
OUTPUT_UNIT: %
inhibition: 50.8

COMPOUND: CCOC(=O)c1ccc(-n2c(CCC(=O)O)ccc2-c2ccccc2)cc1
OUTPUT_UNIT: %
inhibition: 3.33

COMPOUND: O=C(NC1CCCC1)C(c1ccco1)N(C(=O)c1ccco1)c1ccc(F)cc1 (configuration not stated)
OUTPUT_UNIT: %
inhibition: -3.74

COMPOUND: COc1ccc(N2CC(C(=O)NCCS(=O)(=O)N3CCN(c4ccccc4)CC3)CC2=O)cc1 (configuration not stated)
OUTPUT_UNIT: %
inhibition: 0.28

COMPOUND: Cc1ccc(CNC(=O)C2(C(F)(F)F)C/C(=C\Cc3ccccc3)CCCO2)o1 (configuration not stated)
OUTPUT_UNIT: %
inhibition: 2.14
